Answer each item with its documented growth inhibition.
procedure details: NCI Yeast Anticancer Drug Screen. Data for the rad50EPP+ strain (AID 151);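 note: 0% = growth of vehicle-treated control cultures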
setup conditions: S. cerevisiae rad50 mutant strain, at 100.0 µM, active compounds read high
Method: Growth inhibition of yeast strains with defined genetic alterations is measured as a screen for potential anti-cancer activity. Selected strains with alterations in DNA damage repair or cell cycle control were exposed to compounds and growth inhibition was measured relative to vehicle treated controls. The strain used in this assay is rad50EPP+
Compounds without any hit were thinned out: in the full panel of roughly 79,000, 15% have a hit.
Write the number in % without appending the unit.

Measured growth inhibition of `COc1ccc(N2CN(C)CSC2=S)cc1` : 90

Measured growth inhibition of `O=C1c2c(O)cccc2-c2nn(CCNCCO)c3ccc(NCCNCCO)c1c23` : 77

Measured growth inhibition of `Cc1cccc(/C=N/NC(=S)N(C)CCc2ccccn2)n1` : 90

Measured growth inhibition of `ClCCn1c(CCl)nc2ccc(Cl)cc21` : 91

Measured growth inhibition of `Clc1cc(Cc2ccc(N=C/C=C/c3ccccc3)c(Cl)c2)ccc1N=C/C=C\c1ccccc1` : 21

Measured growth inhibition of CC(=O)Oc1ccc(N2C(=O)C3c4[nH]c5ccccc5c4C4CCC(C(C)(C)C)CC4C3C2=O)cc1 (stereo unspecified) : 6

Measured growth inhibition of `CC(=O)c1cc2c(Cl)cc(Cl)cc2oc1=O` : 15

Measured growth inhibition of `S=c1nc(Cl)cc2[nH]c(Cl)cn12` : 98

Measured growth inhibition of `CCc1nc(N)nc(N)c1-c1ccc(NCCCCCCN)c([N+](=O)[O-])c1` : 17

Measured growth inhibition of `O=C1c2ccccc2CCC1(Br)Br` : 99

Measured growth inhibition of `O=[N+]([O-])c1c(/C=N/Nc2ccccc2)oc(-c2ccc3c(c2)OCO3)c1-c1ccc2c(c1)OCO2` : 46

====

procedure details: NCI Yeast Anticancer Drug Screen. Data for the CLN2oe strain (AID 163);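 note: 0% = growth of vehicle-only control cultures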
setup conditions: S. cerevisiae CLN2oe strain, at 100.0 µM
The panel holds about 79,000 compounds, 15% with a hit somewhere; the sample as a whole holds those more often. Calls of active or inactive are those of the source. Rule as the data show it: active = growth inhibition above about 70%; inactive = the rest. Residues, ends and D or L forms follow the SMILES beside them. *: point of attachment. CH2Cl = ClC*
Reply using exactly one outcome from t (active), f (inactive)

Name the outcome recorded for `O=C1C=CC(=O)N1c1ccc2c(c1)OCO2` in the assay. t

Name the outcome recorded for `S=c1[nH]c2c(Cl)c(Cl)c(Cl)c(Cl)c2[nH]1` in the assay. t

Name the outcome recorded for `CCCCOC(=O)CSSCC(=O)OCCCC` in the assay. t

Name the outcome recorded for O=C1NC(c2c(Cl)cccc2Cl)Nc2ccccc21 (configuration not stated) in the assay. t

Name the outcome recorded for `CSc1s[s+]c(SC)c1-c1ccccc1` in the assay. f

Name the outcome recorded for `COc1ccc(N=N/C(=N\NC(=O)c2cc(Br)ccc2O)c2ccc(N(CCC#N)CCC#N)cc2OC)cc1` in the assay. f

Name the outcome recorded for `O=C(N/N=C\c1c(Cl)cccc1Cl)N/N=C/c1c(Cl)cccc1Cl` in the assay. f

Name the outcome recorded for `O=C(/C=C/c1cccc2ccccc12)c1ccc(Cl)cc1` in the assay. f

Name the outcome recorded for `NC(N)=NCCCS(=O)(=O)Nc1ccc(Nc2c3ccccc3nc3cc([N+](=O)[O-])ccc23)cc1` in the assay. f

Name the outcome recorded for CCC(=O)N(c1ccccc1)C(C)CN1CCC(O)(c2cccc(C(F)(F)F)c2)CC1 (configuration not stated) in the assay. t

Name the outcome recorded for `N#Cc1sc2c(c1OC(=O)c1ccco1)c(=O)n(-c1ccccc1)c(=S)n2-c1ccccc1` in the assay. f

Name the outcome recorded for `O=C1C=CC(=O)N1c1ccc(N2C(=O)C=CC2=O)cc1` in the assay. t

Name the outcome recorded for `CN(C)CCNc1cccc2sc3ccc(O)cc3c(=O)c12` in the assay. f

Name the outcome recorded for `CCCCCCCCN1C(=O)c2ccccc2C1=O` in the assay. f

Name the outcome recorded for `O=C(/C=C\c1ccc([N+](=O)[O-])o1)Nc1ccc(Cl)cc1` in the assay. f

Name the outcome recorded for `CCn1ncc(N=O)c1N` in the assay. f

Name the outcome recorded for CC(=O)C1=C(O)C2(C)c3c(O)c(C)c(O)c(C(C)=O)c3OC2(Sc2ccccc2)CC1=O (configuration not stated) in the assay. t

Name the outcome recorded for CC(=O)NC(CC(C)C)C(=O)NC(Cc1ccccc1)C(=O)CCl (stereo not drawn) (Ac-Leu-Phe-CH2Cl; configuration not given here) in the assay. f

Name the outcome recorded for `COc1ccc(N2CN(C)CSC2=S)cc1` in the assay. f

Name the outcome recorded for `N#C/C(=C\c1ccccc1)c1ccccc1F` in the assay. f

Name the outcome recorded for `COc1cc(NCc2ccc3nc(N)nc(N)c3c2C)cc(OC)c1OC` in the assay. f

Name the outcome recorded for `O=Cc1coc2ccccc2c1=O` in the assay. f

Name the outcome recorded for `COCCCN(Cc1cc(OC)c(OC)c(OC)c1)C(=S)Nc1cccc(Cl)c1` in the assay. f

Name the outcome recorded for `Clc1c(Cl)c(Cl)c2n[nH]nc2c1Cl` in the assay. t

Name the outcome recorded for `Cc1ccc(S(=O)(=O)N/N=C/C2(c3ccccc3)c3ccccc3-c3ccccc32)cc1` in the assay. t

Name the outcome recorded for `Cc1ccc(S(=O)(=O)N(C)c2ccc(Cl)cc2C2=NCCc3ccccc32)cc1` in the assay. t

Name the outcome recorded for `Clc1cc(-c2ccccc2)nc2ccccc12` in the assay. f

Name the outcome recorded for `NNC(=S)Nc1cccc2ccccc12` in the assay. f

Name the outcome recorded for `C/C=C/[P+](c1ccccc1)(c1ccccc1)c1ccccc1` in the assay. t

Name the outcome recorded for CC1=CCCC2C1(C)CCC(C)C2(C)Cc1cc(O)ccc1O (configuration not stated) in the assay. t

Name the outcome recorded for `Oc1ccc(C=Nc2ccccc2O)cc1` in the assay. f

Name the outcome recorded for `[N-]=[N+]=NC(c1ccccc1)(c1ccccc1)c1ccccc1` in the assay. t

Name the outcome recorded for `CCCCC(=O)c1c(O)nc2sccn2c1=O` in the assay. t

Name the outcome recorded for `O=C(CCc1ccccc1)ON1C(=S)C(c2ccccc2)(c2ccccc2)N=C1Sc1ccccc1` in the assay. f

Name the outcome recorded for `Clc1cc(Cc2ccc(N=C/C=C/c3ccccc3)c(Cl)c2)ccc1N=C/C=C\c1ccccc1` in the assay. f

Name the outcome recorded for `C=Cc1cnc([N+](=O)[O-])n1C` in the assay. t

Name the outcome recorded for `COc1ccc2c(c1)[nH]c1c(/C=C/c3ccccc3)nccc12` in the assay. t

Name the outcome recorded for CN(C)CC1CCCc2ccccc2C1=O (configuration not stated) in the assay. t

Name the outcome recorded for `O=C1CC(=O)N(C2CCCCC2)C(=O)N1c1ccccc1S(=O)(=O)Oc1ccccc1` in the assay. t

Name the outcome recorded for `CCc1[nH]nc(C(N)=O)c1N=NN(C)C` in the assay. f

Name the outcome recorded for NP1(Oc2ccc(F)cc2)=NP(N)(Oc2ccc(F)cc2)=NP(Oc2ccc(F)cc2)(Oc2ccc(F)cc2)=N1 (configuration not stated) in the assay. t

Name the outcome recorded for `O=C1c2cccc3cc([N+](=O)[O-])cc(c23)C(=O)N1CCN1CCCC1` in the assay. f

Name the outcome recorded for `CCOC(=O)CNC(=O)c1[nH]cnc1/N=N/N(C)C` in the assay. t

Name the outcome recorded for `Cc1c(-c2ccccc2)[nH]c2ccccc12` in the assay. t

Name the outcome recorded for `O=S(=O)(c1cc(Cl)ccc1O)c1cc(Cl)ccc1O` in the assay. t

Name the outcome recorded for `COc1cc(N)ccc1Nc1c2ccccc2nc2ccccc12` in the assay. t

Name the outcome recorded for CC1OC(OC2CCCc3c(O)c4c(c(O)c32)C(=O)c2ccccc2C4=O)CC(N)C1O (configuration not stated) in the assay. t
